Tested on: SKOV3 cells
assay: In vitro mitosafety (glucose/galactose) assay
Assay type: cell-based
reported-conditions: highest mito-safe dose (gal/glc >0.80, IC20, SKOV3 cells, 20 hours) divided by mt-Keima EC50
experimental-readout: Mito-Safety Index (highest safe dose/EC50)

compound	experimental-target	obs-value
FC(F)(F)c1cc2c(N[C@H]3c4ccccc4OC[C@@H]3C3(F)CCOCC3)ncnc2[nH]1 [EP-0043236]	SKOV3 cells	59.18
C[C@@H]1CN([C@H]2COc3cc(F)ccc3[C@@H]2Nc2nccc3[nH]c(C(F)(F)F)cc23)CCO1 [EP-0043830]	SKOV3 cells	118.0
F[C@H]1CCN([C@H]2COc3ccccc3[C@@H]2Nc2ncnc3[nH]c(C(F)(F)F)cc23)C1 [EP-0042972]	SKOV3 cells	62.14
CC1(C#N)CCN([C@H]2COc3ccccc3[C@@H]2Nc2ncnc3[nH]c(C(F)(F)F)cc23)C1 (single isomer, unassigned) [EP-0043816]	SKOV3 cells	75.4
